The compounds listed here are annotated with their TGI.
- System: SF-539 CNS
- test summary: NCI tumour cell line growth inhibition, 48 h

Known TGI results, listed for orientation:
Ask: Item O=C1CCN=C(NC(=O)C(F)(F)F)N1CCc1c[nH]c2ccccc12 : provide TGI
Result: > 100 µM

Ask: Please give the documented TGI of Cc1cc(N2CCCCC2)nc(NCc2cc(Nc3ccnc4cc(Cl)ccc34)ccc2F)n1
Result: 3.04 µM

Ask: Give the reported value of TGI for this record: O=C1CC2(CCN(CC3COc4ccccc4O3)CC2)C(=O)N1N1CCCCCC1 (stereo not drawn)
Result: > 100 µM

Others:
Ask: Note TGI for the compound shown: Cc1ccc(N/C(=C(/C(Cl)=C(Cl)Cl)[N+](=O)[O-])n2nnc3ccccc32)cc1
Result: 31.3 µM

Ask: Give the measured TGI for Cc1cc2nn(C3CCCCO3)nc2cc1C (stereo not drawn)
Result: > 100 µM

Ask: Specify measured TGI for O=c1[nH]c(=S)n(-c2cccc3ccccc23)c(O)c1/C=C1\C=Nc2ccccc21 .
Result: 5.38 µM

Ask: Read off the recorded TGI for ClCCN(CC#CCCCC#CCN(CCCl)CCCl)CCCl
Result: 27 µM

Ask: Look up TGI of CCC1CCC2C3CC=C4CC(OC(C)=O)C(N)CC4(C)C3CCC12C (stereo not drawn) and report it.
Result: 3.5 µM

Ask: Identify the reported TGI for the following entry. CCOc1cccc2sc(N)nc12
Result: > 100 µM

Ask: Report measured TGI; entry is CS(=O)(=O)c1nccc(-c2c(-c3cccc(OCc4ccccc4)c3)nc3sccn23)n1
Result: > 100 µM

Ask: State, in one line, measured TGI of CN(C)C=O.CN(C)C=O.CN1C(C(=O)Nc2ccccn2)=C([O-])c2ccccc2S1(=O)=O.CN1C(C(=O)Nc2ccccn2)=C([O-])c2ccccc2S1(=O)=O.[Cu+2]
Result: > 100 µM

Ask: Return TGI for the following compound: CCN1C(=O)/C(=C\c2coc3ccccc3c2=O)SC1=S
Result: 90.1 µM

Ask: Fill in reported TGI for this entry: Cc1cc(C)c(-n2c(C)c(C)c(C#N)c2N)c(C)c1
Result: 69.8 µM

Ask: Give reported TGI value for CC(/C=C/C=C\C=C\C=C(/C)C(=O)NC(C)CO)=C\C(C)C(O)/C(C)=C/C(C)CCc1ccccc1 (stereo not drawn)
Result: 27.1 µM

Ask: Please give the documented TGI of CCCCCCCCCCCCCCCCSS(C)(=O)=O
Result: > 56.4 µM
